- Tested on: SF-295
- PROCEDURE_SUMMARY: NCI tumour cell line growth inhibition, 48 h
Calls of active or inactive are those of the source. No stated cut-off is given here; in the data, active = GI50 up to about 1.1 µM and inactive = higher.

COMPOUND: CC(=O)Oc1ccccc1
GI50: > 100 µM (inactive)
--
COMPOUND: Cc1cc(C)c(-c2noc(-c3ccc(Cl)cc3)c2C2=NCCN2)c(C)c1
GI50: 14 µM (inactive)
--
COMPOUND: FC(F)(Sc1ncccn1)c1nc2ccccc2o1
GI50: > 100 µM (inactive)
--
COMPOUND: CC(C)(C)C1CCC(O)(c2ccccc2)CC1 (stereo unspecified)
GI50: > 100 µM (inactive)
--
COMPOUND: COC(=O)C(=O)CC(=O)CCn1[nH]c(=O)c(Cl)c(Cl)c1=O
GI50: > 100 µM (inactive)
--
COMPOUND: CC(=O)NC1=C(Sc2ccc(Cl)cc2)C(=O)c2ccccc2C1=O
GI50: 8.81 µM (inactive)
